B1: KRT71 (parent)
chain: ELRNVQDVVEDYKKRYEEEINKRT

Variants of: B1
Protocol description: protein stability index of a GFP-peptide fusion (GPS, HEK-293T) (PSI 1-6); higher = more stable;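 further: lentivirally expressed fusions sorted by FACS into six bins by GFP to DsRed ratio, PSI derived from sequencing read proportions per bin multiplied by bin number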
Experimental context: c terminus: a fixed tail appended
As shown below, each of these variants has a reported protein stability index value.

Task: Would you kindly share the measured protein stability index for E10A ?
Output: 3.17

Task: Would you kindly share the measured protein stability index for E1N ?
Output: 3.49

Task: Would you kindly share the measured protein stability index for T24R ?
Output: 4.41

Task: Would you kindly share the measured protein stability index for E17T ?
Output: 3.45

Task: Would you kindly share the measured protein stability index for Y12C ?
Output: 4.07

***
Task: Would you kindly share the measured protein stability index for E10W ?
Output: 2.43

Task: Would you kindly share the measured protein stability index for V5F ?
Output: 3.38

Task: Would you kindly share the measured protein stability index for Y16H ?
Output: 3.75

Task: Would you kindly share the measured protein stability index for E17W ?
Output: 3.87

Task: Would you kindly share the measured protein stability index for R15I ?
Output: 4.28

Task: Would you kindly share the measured protein stability index for E10Y ?
Output: 3.26
